target.or.test.system: Aldehyde dehydrogenase 1A1 (Homo sapiens)
method.notes: qHTS Assay for Inhibitors of Aldehyde Dehydrogenase 1 (ALDH1A1)
run.parameters: Purified ALDH1A1, NADH fluorescence, propionaldehyde substrate; series mostly up to 75.3 µM
Screen size: about 220,000 compounds; about 16,000 (7.3%) were called active. About 25% were inconclusive and are not listed. Calls come from the whole dose curve; as a rule, active = well fitted inhibition curve with a large enough effect (not every such curve was filed as active); inconclusive = small, poorly fitted or top-dose-only effect, or another doubt; inactive = no such curve, though single readings can be large or run the other way. This is one part of a sample in which actives are shown more often than they occur.
Valid outcomes are listed here; reply with one: true = active, false = inactive

>  <compound>
CCOc1ccc(-c2ccc(SCC(=O)N3CCOCC3)nn2)cc1

>  <group.label>
false

$$$$
>  <compound>
CCc1cc(CNC(=O)CC2C(=O)NCCN2CC2CCCCC2)on1 (stereo not given)

>  <group.label>
false

$$$$
>  <compound>
Nc1nc(O)c(CC(=O)O)s1

>  <group.label>
false

$$$$
>  <compound>
Cc1ccc(C)c(NC(CC(=O)c2ccccc2)C(=O)OCC(=O)c2cccs2)c1 (stereo not given)

>  <group.label>
true

$$$$
>  <compound>
O=C(Cn1c2[n+](c3ccc(C(F)(F)F)cc31)CCCCC2)Nc1c(F)cccc1F

>  <group.label>
false

$$$$

Dear all, I need the recorded test outcome for O=C(c1ccccn1)c1ncc(C(F)(F)F)cc1Cl , thank you.
false

Dear all, I need the recorded test outcome for O=C(Nc1nc(-c2ccc(-c3ccccc3)cc2)cs1)c1cnccn1 , thank you.
false

Dear all, I need the recorded test outcome for O=C(CC(O)(C(F)(F)F)C(F)(F)F)Nc1ccc(Cl)c(Cl)c1 , thank you.
false

Dear all, I need the recorded test outcome for Cc1ccc(CC(=O)Nc2cccc(C#N)c2)cc1 , thank you.
false

Dear all, I need the recorded test outcome for CC(CC(=O)N1CCN(c2ccccc2)CC1)c1ccccc1 (stereo not given) , thank you.
false

Dear all, I need the recorded test outcome for CCOC(=O)c1c(Cc2ccc(Cl)cc2)c[nH]c1C , thank you.
false

Where do these numbers come from? They come from PubChem BioAssay AID1030.
